Experiment: Pharmacokinetics and biodistribution after 3% PS gel on outer surface of eyelid (Example 26)
Type: in vivo, rabbit
Conditions: male, New Zealand White, rabbit, topical; cornea, 0.5 h; rabbits, 3% PS gel on outer surface of upper eyelids; read-out: Amount in tissue, Mean ± SEM
observation-type: concentration at 0.5 h (nM)
Numbers only, in nM.

CCOP(=O)(OCC)OCCCCOC(=O)CC1=C(C)/C(=C/c2ccc([S+](C)[O-])cc2)c2ccc(F)cc21 (centres unmarked) [PS, phosphosulindac]: 1800

[Q] Supply reported concentration at 0.5 h belonging to this compound: CC1=C(CC(=O)O)c2cc(F)ccc2/C1=C\c1ccc([S+](C)[O-])cc1 (centres unmarked) [sulindac]
[A] 400

---

Test: Pharmacokinetics and biodistribution after 3% PS gel on outer surface of eyelid (Example 26)
Assay type: in vivo, rabbit
Settings: male, New Zealand White, rabbit, topical or ocular; conjunctiva; rabbits, 3% PS gel on outer surface of upper eyelids
observation-type: half-life (h)
One number for each entry, in h.

[Q] Give the reported half-life for this molecule. CCOP(=O)(OCC)OCCCCOC(=O)CC1=C(C)/C(=C/c2ccc([S+](C)[O-])cc2)c2ccc(F)cc21 (stereo not shown) [PS, phosphosulindac]
[A] 5.7

---

Experiment: Pharmacokinetics and biodistribution after 3% PS gel on outer surface of eyelid (Example 26)
Assay type: in vivo, rabbit
Conditions: male, New Zealand White, rabbit, topical; eyelid, 2 h; rabbits, 3% PS gel on outer surface of upper eyelids; read-out: Amount in tissue, Mean ± SEM
observation-type: concentration at 2 h (nM)
Answers are plain numbers, in nM.

CC1=C(CC(=O)O)c2cc(F)ccc2/C1=C\c1ccc([S+](C)[O-])cc1 (centres unmarked): 0

Now for another entry.
[Q] Specify concentration at 2 h for CCOP(=O)(OCC)OCCCCOC(=O)CC1=C(C)/C(=C/c2ccc([S+](C)[O-])cc2)c2ccc(F)cc21 (centres unmarked) and stop.
[A] 2000

---

Test: Pharmacokinetics and biodistribution after 3% PS gel on outer surface of eyelid (Example 26)
Type: in vivo, rabbit
Details: male, New Zealand White, rabbit, topical; eyelid, 4 h; rabbits, 3% PS gel on outer surface of upper eyelids; read-out: Amount in tissue, Mean ± SEM
observation-type: concentration at 4 h (nM)
Give bare numbers, in nM.

CC1=C(CC(=O)O)c2cc(F)ccc2/C1=C\c1ccc([S+](C)[O-])cc1 (centres unmarked) [sulindac]: 500

Moving on to another compound below.
[Q] Please look at this compound and report its concentration at 4 h: CCOP(=O)(OCC)OCCCCOC(=O)CC1=C(C)/C(=C/c2ccc([S+](C)[O-])cc2)c2ccc(F)cc21 (centres unmarked) [PS, phosphosulindac]
[A] 3500

---

I'd appreciate it if you could supply concentration at 2 h values for the items below.
Experiment: Pharmacokinetics and biodistribution after 3% PS gel on outer surface of eyelid (Example 26)
Type: in vivo, rabbit
Conditions: male, New Zealand White, rabbit, topical; conjunctiva, 2 h; rabbits, 3% PS gel on outer surface of upper eyelids; read-out: Amount in tissue, Mean ± SEM
Give bare numbers, in nM.

CC1=C(CC(=O)O)c2cc(F)ccc2/C1=C\c1ccc([S+](C)[O-])cc1 (centres unmarked): 0

Below: the item to evaluate.
[Q] Answer with the recorded concentration at 2 h of CCOP(=O)(OCC)OCCCCOC(=O)CC1=C(C)/C(=C/c2ccc([S+](C)[O-])cc2)c2ccc(F)cc21 (centres unmarked) only.
[A] 400
